Below, each of the compounds is paired with its reported inhibition value.
- measuredOn: IL33 and ST2 binding (Homo sapiens, UniProt O95760)
- conditionSet: 100 µM
readoutType: inhibition (%)

* CN(C)CCN1CCN(C(=O)c2nc(-c3cccc(C(F)(F)F)c3)oc2-c2ccccc2[N+](=O)[O-])CC1 | 24
* COCCNC(=O)c1nc(-c2ccc(C(F)(F)F)cc2)oc1-c1ccccc1[N+](=O)[O-] | 29
* CN(C)CCNC(=O)c1nc(-c2cccc(F)c2)oc1-c1ccccc1 | -14
* O=C(NCCc1ccc(F)cc1)c1nc(-c2ccc(C(F)(F)F)cc2)oc1-c1ccccc1[N+](=O)[O-] | 19
* CN(C)CCNC(=O)c1nc(-c2cc(F)cc(F)c2)oc1-c1ccccc1[N+](=O)[O-] | -16
* CCOC(=O)c1nc(-c2cccc(C(F)(F)F)c2)oc1-c1ccccc1 | 33

---

Below, each of the compounds is paired with its reported inhibition value.
- measuredOn: UniProtKB O95760
- conditionSet: 30 µM
readoutType: inhibition (%)

* CSc1ccc(-c2nc(C(=O)NCCN(C)C)c(-c3ccccc3)o2)cc1 | 31
* CN1CCN(CCNC(=O)c2nc(-c3ccc(N(C)C)cc3)oc2-c2ccccc2[N+](=O)[O-])CC1 | 29
* CN1CCN(CCNC(=O)c2nc(-c3ccc(C#N)cc3)oc2-c2ccccc2[N+](=O)[O-])CC1 | 28
* CCOC(=O)c1nc(-c2ccc(F)cc2)oc1-c1ccccc1[N+](=O)[O-] | 55
* CN(C)CCNC(=O)c1nc(-c2cc(F)cc(F)c2)oc1-c1ccccc1[N+](=O)[O-] | -34
* O=C(NCc1cccnc1)c1nc(-c2ccc(C(F)(F)F)cc2)oc1-c1ccccc1[N+](=O)[O-] | 6
* CC(=O)Nc1ccc(NC(=O)c2nc(-c3ccc(C(F)(F)F)cc3)oc2-c2ccccc2[N+](=O)[O-])cc1 | 27
* CCNC(=O)c1nc(-c2cccc(Cl)c2)oc1-c1ccccc1 | -18
* O=C(NCCc1ccc(F)cc1)c1nc(-c2ccc(C(F)(F)F)cc2)oc1-c1ccccc1[N+](=O)[O-] | 20
* O=C(c1nc(-c2ccc(C(F)(F)F)cc2)oc1-c1ccccc1[N+](=O)[O-])N1CCN(CCN2CCOCC2)CC1 | 36
* CN(C)CCNC(=O)c1coc(-c2ccc(C(F)(F)F)cc2)n1 | 10
* CC(=O)N1CCN(CCNC(=O)c2nc(-c3cc(F)cc(F)c3)oc2-c2ccccc2[N+](=O)[O-])CC1 | 18
* O=C(NCCCN1CCCC1)c1nc(-c2ccc(C(F)(F)F)cc2)oc1-c1ccccc1[N+](=O)[O-] | 10
* CCOC(=O)c1nc(-c2ccc(C(F)(F)F)cc2)oc1-c1ccc(N(C(C)=O)C(C)=O)cc1 | 19
* O=C(NCC1CCCO1)c1nc(-c2ccc(C(F)(F)F)cc2)oc1-c1ccccc1[N+](=O)[O-] (stereo not shown) | 2
* CN(C)CCNC(=O)c1nc(-c2cccc(OC(F)(F)F)c2)oc1-c1ccccc1 | 7
* CN1CCN(C(=O)c2nc(-c3ccc(C(F)(F)F)cc3)oc2-c2ccccc2[N+](=O)[O-])CC1 | -31
* CN(C)CCNC(=O)c1nc(-c2ccc(F)cc2)oc1-c1ccccc1 | -13
* CCOC(=O)c1nc(-c2ccc(F)c(F)c2)oc1-c1ccccc1[N+](=O)[O-] | 29
* O=C(c1nc(-c2ccc(C(F)(F)F)cc2)oc1-c1ccccc1[N+](=O)[O-])N1CCCCC1 | -19
* CN1CCN(CCNC(=O)c2nc(-c3ccc(F)cc3)oc2-c2ccccc2)CC1 | -6
* COc1ccc(-c2nc(C(=O)NCCN3CCN(C)CC3)c(-c3ccccc3[N+](=O)[O-])o2)cc1 | -12
* CCOC(=O)c1nc(-c2ccc(Cl)c(C(F)(F)F)c2)oc1-c1ccccc1 | 110
* CN(C)CCNC(=O)c1nc(-c2cccc(C(F)(F)F)c2)oc1-c1ccccc1 | -20
* CCOC(=O)c1nc(-c2cccc(C(F)(F)F)c2)oc1-c1ccccc1 | 19
* CCOC(=O)c1nc(-c2ccc(C(F)(F)F)cc2)oc1-c1cc(OC)cc(OC)c1 | 87
* O=C(c1nc(-c2ccc(C(F)(F)F)cc2)oc1-c1ccccc1[N+](=O)[O-])N1CCN(CCN2CCCC2)CC1 | 3
* CCNC(=O)c1nc(-c2ccc(C(F)(F)F)cc2)oc1-c1ccccc1 | 95
* CCOC(=O)c1nc(-c2ccc(C(F)(F)F)cc2)oc1-c1ccccc1 | 110
* CCOC(=O)c1nc(-c2ccc(C(F)(F)F)cc2)oc1-c1ccc([N+](=O)[O-])cc1 | 108
* COc1ccc(-c2nc(C(=O)NCCN3CCN(C)CC3)c(-c3ccc([N+](=O)[O-])cc3)o2)cc1 | 11

---

- Tested on: Human liver cancer cell line HepG2 cells
- assayRemarks: Cellular viability, WST-8 assay, without or with human liver microsomes
- Assay type: cell-based
- conditionSet: at 100 μM, HepG2, without human liver microsomes
readoutType: Cellular viability (%) (−) microsome (at %)

* CCOC(=O)c1nc(-c2ccc(C(F)(F)F)cc2)oc1-c1ccccc1OC(F)(F)F | 117
* CCOC(=O)c1nc(-c2ccc(Cl)c(C(F)(F)F)c2)oc1-c1ccccc1 | 83
* CSc1ccc(-c2nc(C(=O)NCCN3CCN(C)CC3)c(-c3ccccc3)o2)cc1 | 46
* CN(C)CCNC(=O)c1nc(-c2ccc(Cl)cc2)oc1-c1ccccc1[N+](=O)[O-] | 47

---

- measuredOn: UniProtKB O95760
- Sequence (O95760 112-270 limits assumed): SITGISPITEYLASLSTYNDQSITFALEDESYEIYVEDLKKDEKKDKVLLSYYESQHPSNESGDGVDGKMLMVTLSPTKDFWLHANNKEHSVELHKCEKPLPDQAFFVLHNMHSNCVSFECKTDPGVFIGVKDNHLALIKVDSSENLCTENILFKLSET
- conditionSet: 100 µM
readoutType: inhibition (%)

- CN(C)CCNC(=O)c1nc(-c2ccc(-c3ccccc3)cc2)oc1-c1ccccc1: 60
- COc1ccc(-c2nc(C(=O)NCCN3CCN(C)CC3)c(-c3ccc([N+](=O)[O-])cc3)o2)cc1: 44
- CN1CCN(CCNC(=O)c2nc(-c3ccc(C(F)(F)F)cc3)oc2-c2ccccc2)CC1: -5
- CN(C)CCNC(=O)c1nc(-c2cccc(OC(F)(F)F)c2)oc1-c1ccccc1[N+](=O)[O-]: -5
- O=C(NCCCN1CCOCC1)c1nc(-c2ccc(C(F)(F)F)cc2)oc1-c1ccccc1[N+](=O)[O-]: 15
- CN1CCN(CCNC(=O)c2nc(-c3cc(F)cc(F)c3)oc2-c2ccccc2)CC1: -7
- COc1cccc(-c2nc(C(=O)NCCN3CCN(C)CC3)c(-c3ccccc3[N+](=O)[O-])o2)c1: 20
- CN(C)CCNC(=O)c1nc(-c2ccc(-c3ccccc3)cc2)oc1-c1ccccc1[N+](=O)[O-]: 1
- CN1CCN(CCNC(=O)c2nc(-c3ccc(-c4ccccc4)cc3)oc2-c2ccccc2)CC1: 11
- COc1ccc(CNC(=O)c2nc(-c3ccc(C(F)(F)F)cc3)oc2-c2ccccc2[N+](=O)[O-])cc1: 5
- CN1CCN(CCNC(=O)c2nc(-c3ccc([N+](=O)[O-])cc3)oc2-c2ccccc2)CC1: -23
- CCOC(=O)c1nc(-c2cccc(F)c2)oc1-c1ccccc1: 32
- CCOC(=O)c1nc(-c2ccc(C(C)(C)C)cc2)oc1-c1ccc(NC(C)=O)cc1: 12
- CN1CCN(CCNC(=O)c2nc(-c3ccc(C(C)(C)C)cc3)oc2-c2ccccc2)CC1: 10
- CCOC(=O)c1nc(-c2ccc(C(F)(F)F)cc2)oc1-c1cccc(C#N)c1: 116
- O=C(c1nc(-c2ccc(C(F)(F)F)cc2)oc1-c1ccccc1[N+](=O)[O-])N1CCN(C2CC2)CC1: -57

---

- measuredOn: IL33 and ST2 binding (Homo sapiens, UniProt O95760)
- conditionSet: 30 µM
readoutType: inhibition (%)

* CN(C)CCNC(=O)c1nc(-c2ccc([N+](=O)[O-])cc2)oc1-c1ccccc1[N+](=O)[O-] | 60
* CN(C)CCNC(=O)c1nc(-c2ccc(F)c(F)c2)oc1-c1ccccc1[N+](=O)[O-] | -27
* CN(C)CCNC(=O)c1nc(-c2ccc3ccccc3c2)oc1-c1ccccc1[N+](=O)[O-] | 6
* CN1CCN(CCNC(=O)c2nc(-c3ccc([N+](=O)[O-])cc3)oc2-c2ccccc2[N+](=O)[O-])CC1 | 46
* CCOC(=O)c1nc(-c2ccc(OC)cc2)oc1-c1ccccc1[N+](=O)[O-] | 26
* O=C(c1nc(-c2ccc(C(F)(F)F)cc2)oc1-c1ccccc1[N+](=O)[O-])N1CCOCC1 | -1
* CN(C)CCNC(=O)c1nc(-c2cccc(Cl)c2)oc1-c1ccccc1[N+](=O)[O-] | -14
* CCOC(=O)c1nc(-c2ccc(F)cc2)oc1-c1ccccc1 | 9
